Reference source for all entries: patent US20110081661A1

Molecular target: T1, GIP Receptor (Homo sapiens, UniProt P48546)
T1 construct: host or cells: HEK293T
T1 sequence (P48546 22-466): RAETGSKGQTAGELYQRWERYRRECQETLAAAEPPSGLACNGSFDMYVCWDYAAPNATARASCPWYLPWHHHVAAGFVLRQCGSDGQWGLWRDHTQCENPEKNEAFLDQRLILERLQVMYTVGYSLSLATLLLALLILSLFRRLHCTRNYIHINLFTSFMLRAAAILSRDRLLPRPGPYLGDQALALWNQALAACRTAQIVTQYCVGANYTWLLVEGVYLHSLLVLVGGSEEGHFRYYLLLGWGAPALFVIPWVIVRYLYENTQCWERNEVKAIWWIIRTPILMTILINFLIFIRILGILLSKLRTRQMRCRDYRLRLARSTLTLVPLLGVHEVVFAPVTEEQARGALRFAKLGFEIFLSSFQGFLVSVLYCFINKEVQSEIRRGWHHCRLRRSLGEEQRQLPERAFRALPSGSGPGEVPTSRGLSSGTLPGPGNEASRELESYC
Experiment: GIP receptor-mediated bioluminescence in HEK293T cells with chimeric promiscuous G protein (FIG. 5, Table II)
Assay type: cell-based
Conditions: HEK293T cells, GIP Receptor + promiscuous G protein; luminescence vs GIP concentration
Measure Name: EC50
# output: number + unit

Mt-clytin K168T: Mitochondrial K168T modified Clytin, SEQ ID NO:24 (protein) MSVLTPLLLRGLTGSARRLPVPRAKIHSLPPEGKLRPNFDNPKWVNRHKFMFNFLDINGDGKITLDEIVSKASDDICAKLGATPEQTKRHQDAVEAFFKKIGMDYGKEVEFPAFVDGWKELANYDLKLWSQNKKSLIRDWGEAVFDIFDKDGSGSISLDEWKAYGRISGICSSDEDAEKTFKHCDLDNSGTLDVDEMTRQHLGFWYTLDPNADGLYGNFVP = 13.4 nM
Cyto-clytin wt: Wild type Clytin (wt-Clytin) amino acid sequence, SEQ ID NO:1; cytosolic (protein, listed as Clytia gregaria) MADTASKYAVKLRPNFDNPKWVNRHKFMFNFLDINGDGKITLDEIVSKASDDICAKLGATPEQTKRHQDAVEAFFKKIGMDYGKEVEFPAFVDGWKELANYDLKLWSQNKKSLIRDWGEAVFDIFDKDGSGSISLDEWKAYGRISGICSSDEDAEKTFKHCDLDNSGKLDVDEMTRQHLGFWYTLDPNADGLYGNFVP = 9.67 nM
Mt-clytin K168G: Mitochondrial K168G modified Clytin, SEQ ID NO:16 (protein) MSVLTPLLLRGLTGSARRLPVPRAKIHSLPPEGKLRPNFDNPKWVNRHKFMFNFLDINGDGKITLDEIVSKASDDICAKLGATPEQTKRHQDAVEAFFKKIGMDYGKEVEFPAFVDGWKELANYDLKLWSQNKKSLIRDWGEAVFDIFDKDGSGSISLDEWKAYGRISGICSSDEDAEKTFKHCDLDNSGGLDVDEMTRQHLGFWYTLDPNADGLYGNFVP = 15.1 nM
Mt-clytin K168D: Mitochondrial K168D modified Clytin, SEQ ID NO:10 (protein) MSVLTPLLLRGLTGSARRLPVPRAKIHSLPPEGKLRPNFDNPKWVNRHKFMFNFLDINGDGKITLDEIVSKASDDICAKLGATPEQTKRHQDAVEAFFKKIGMDYGKEVEFPAFVDGWKELANYDLKLWSQNKKSLIRDWGEAVFDIFDKDGSGSISLDEWKAYGRISGICSSDEDAEKTFKHCDLDNSGDLDVDEMTRQHLGFWYTLDPNADGLYGNFVP = 9.1 nM

Now take the following molecule into account.
Query: What value of EC50 has been recorded for this entry: Mt-clytin K168S: Mitochondrial K168S modified Clytin, SEQ ID NO:22 (protein) MSVLTPLLLRGLTGSARRLPVPRAKIHSLPPEGKLRPNFDNPKWVNRHKFMFNFLDINGDGKITLDEIVSKASDDICAKLGATPEQTKRHQDAVEAFFKKIGMDYGKEVEFPAFVDGWKELANYDLKLWSQNKKSLIRDWGEAVFDIFDKDGSGSISLDEWKAYGRISGICSSDEDAEKTFKHCDLDNSGSLDVDEMTRQHLGFWYTLDPNADGLYGNFVP
Reply: 15.4 nM
